- Measurement Protocol: 4-week dermal toxicity study in Gottingen Minipigs
- Experimental Context: both, Gottingen, minipig, in vivo

# Molecule Smiles, Unit Abbreviation, NOAEL at 29 days
records = [
    ("C=C1/C(=C\\C=C2/CCC[C@]3(C)[C@@H]([C@H](C)CCCC(C)(C)O)CC[C@@H]23)C[C@@H](O)C[C@@H]1O", "µg/kg", 3.33),
]
